B1: PBXIP1 (parent)
chain: LPVETLGPASRMDPESERALQAPH

# Variants of: B1
# protocol: protein stability index of a GFP-peptide fusion (GPS, HEK-293T) (PSI 1-6); higher = more stable;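 also: lentivirally expressed fusions sorted by FACS into six bins by GFP to DsRed ratio, PSI derived from sequencing read proportions per bin multiplied by bin number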
# experimental_conditions: c terminus: a fixed tail appended
Give protein stability index for every item shown.

Query block: Request the reported protein stability index associated with HPVETLGPASRMDPESERALQAPH [L1H]
Result block: 4.89

Query block: Request the reported protein stability index associated with LPVETLGPASRMDPEVERALQAPH [S16V]
Result block: 4.31

Query block: Request the reported protein stability index associated with LPVETLGPASRMDPESERALQAPR [H24R]
Result block: 4.16

Query block: Request the reported protein stability index associated with LPVETLGPASRMDPESESALQAPH [R18S]
Result block: 4.19

Query block: Request the reported protein stability index associated with LPVETLGPASRMDPESERALQGPH [A22G]
Result block: 4.72

Query block: Request the reported protein stability index associated with LPVETLHPASRMDPESERALQAPH [G7H]
Result block: 4.54

Query block: Request the reported protein stability index associated with LPVETLGPASRMDPESERALLAPH [Q21L]
Result block: 3.96

Query block: Request the reported protein stability index associated with LPVETLQPASRMDPESERALQAPH [G7Q]
Result block: 4.99

Query block: Request the reported protein stability index associated with LPVETLGPVSRMDPESERALQAPH [A9V]
Result block: 2.51

Query block: Request the reported protein stability index associated with LPVETLGPASRMDPESERALQAYH [P23Y]
Result block: 3.99

Please go through the list and note protein stability index for each variant.
1. LPVETLGPASRMDPESERALQAPY [H24Y]
2. LPVPTLGPASRMDPESERALQAPH [E4P]

Result block:
4.07
5.25
